- target: T1, hIL-4Rα on cells (human, UniProt P24394 26-825)
- T1 sequence: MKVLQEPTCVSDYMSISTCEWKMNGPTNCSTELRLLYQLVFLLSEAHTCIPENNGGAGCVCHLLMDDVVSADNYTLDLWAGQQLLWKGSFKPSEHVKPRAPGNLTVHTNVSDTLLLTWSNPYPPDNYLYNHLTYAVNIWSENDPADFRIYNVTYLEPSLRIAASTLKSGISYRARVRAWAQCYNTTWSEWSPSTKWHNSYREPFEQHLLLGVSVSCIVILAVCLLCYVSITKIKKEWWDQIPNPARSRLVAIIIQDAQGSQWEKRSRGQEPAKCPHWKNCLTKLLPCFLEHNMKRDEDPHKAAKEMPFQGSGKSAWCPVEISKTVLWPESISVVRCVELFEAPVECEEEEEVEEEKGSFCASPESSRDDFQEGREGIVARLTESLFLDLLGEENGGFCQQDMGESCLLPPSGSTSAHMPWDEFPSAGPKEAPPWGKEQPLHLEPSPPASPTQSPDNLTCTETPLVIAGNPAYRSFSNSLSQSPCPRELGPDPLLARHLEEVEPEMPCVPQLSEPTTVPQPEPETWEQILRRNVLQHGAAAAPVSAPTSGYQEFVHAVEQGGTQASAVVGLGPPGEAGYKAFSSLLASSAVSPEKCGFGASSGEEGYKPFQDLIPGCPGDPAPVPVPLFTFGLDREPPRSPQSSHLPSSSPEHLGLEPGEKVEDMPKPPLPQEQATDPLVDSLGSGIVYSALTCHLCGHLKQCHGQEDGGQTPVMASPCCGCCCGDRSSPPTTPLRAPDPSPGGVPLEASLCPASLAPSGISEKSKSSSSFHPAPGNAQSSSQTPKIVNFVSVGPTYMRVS
- assaySummary: cell-based or functional assay
Overview of reported Relative Inhibition of IL-4 induced TARC IC50 across a group of binders:

Construct 16 (mAb424) (antibody, IgG4, V domains shown, VH/VL only) VH: EVQLVESGGGLEQPGGSLRLSCAGSGFTFRTYAMTWVRQAPGKGLEWVSSISGSGDNIYYADSVKGRFTISRDNSKNTLYLQMNSLRAEDTAVYYCAKDRLSVTIRPRYYGLDVWGQGTTVTVSS VL: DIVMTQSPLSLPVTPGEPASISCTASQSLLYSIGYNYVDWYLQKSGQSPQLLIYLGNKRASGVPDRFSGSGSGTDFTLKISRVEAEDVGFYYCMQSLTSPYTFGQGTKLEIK    1.63 relative to dupilumab

For the next question, use this binder.
Memo: Construct 17 (mAb425) (antibody, IgG4, V domains shown, VH/VL only) VH: EVQLVESGGGLEQPGGSLRLSCAGSGFTFRDFAMTWVRQAPGKGLEWVSSISGSGSSTYYADSVKGRFTISRDNSKNTLYLQMNSLRAEDTAVYYCAKDRLSVTVRPRYYGLDVWGQGTTVTVSS VL: DIVMTQSPLSLPVTPGEPASISCTASQSLLYSIGYNYVDWYLQKSGQSPQLLIYLGSKRASGVPDRFSGSGSGTDFTLKISRVEAEDVGFYYCMQAYNSPYTFGQGTKLEIK , reported Relative Inhibition of IL-4 induced TARC IC50: 0.491 relative to dupilumab

Attribution: patent US20260193366A1
